- subject of test: human recombinant integrin αvβ5 (αv extracellular domain-acidic leucine zipper-His×6 with β5 extracellular domain-basic leucine zipper) (human) (UniProt P06756)
- Sequence (P06756 other isoform, or with tags, fused parts or gaps, chain 1 of 2): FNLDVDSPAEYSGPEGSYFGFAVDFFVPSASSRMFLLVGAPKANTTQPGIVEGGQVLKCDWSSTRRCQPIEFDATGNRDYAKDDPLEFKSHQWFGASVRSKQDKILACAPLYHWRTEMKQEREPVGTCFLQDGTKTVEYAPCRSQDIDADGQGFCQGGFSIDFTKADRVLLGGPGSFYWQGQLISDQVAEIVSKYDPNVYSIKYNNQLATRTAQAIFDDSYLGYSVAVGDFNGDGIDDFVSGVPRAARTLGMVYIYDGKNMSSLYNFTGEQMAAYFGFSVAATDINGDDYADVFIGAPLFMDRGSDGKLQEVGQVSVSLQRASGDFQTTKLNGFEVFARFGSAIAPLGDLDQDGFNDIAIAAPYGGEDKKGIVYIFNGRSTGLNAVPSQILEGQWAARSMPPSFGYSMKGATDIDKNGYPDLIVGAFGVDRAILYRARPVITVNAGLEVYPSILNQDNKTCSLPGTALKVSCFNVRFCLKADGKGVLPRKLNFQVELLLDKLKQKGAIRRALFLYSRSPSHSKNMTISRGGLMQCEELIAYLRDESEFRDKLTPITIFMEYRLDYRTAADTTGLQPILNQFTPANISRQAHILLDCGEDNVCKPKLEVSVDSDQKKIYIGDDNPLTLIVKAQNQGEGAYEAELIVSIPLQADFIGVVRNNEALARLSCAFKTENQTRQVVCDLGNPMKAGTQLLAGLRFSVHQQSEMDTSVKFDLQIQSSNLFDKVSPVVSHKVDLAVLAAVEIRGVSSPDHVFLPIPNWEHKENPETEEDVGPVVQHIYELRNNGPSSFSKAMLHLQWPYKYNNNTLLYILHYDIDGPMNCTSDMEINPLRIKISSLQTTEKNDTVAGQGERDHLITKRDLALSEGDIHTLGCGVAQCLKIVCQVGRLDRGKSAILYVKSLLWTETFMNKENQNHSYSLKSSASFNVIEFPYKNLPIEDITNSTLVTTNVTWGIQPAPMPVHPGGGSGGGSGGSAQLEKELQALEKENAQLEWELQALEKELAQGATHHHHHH
- Sequence (chain, as listed by the source, chain 2 of 2): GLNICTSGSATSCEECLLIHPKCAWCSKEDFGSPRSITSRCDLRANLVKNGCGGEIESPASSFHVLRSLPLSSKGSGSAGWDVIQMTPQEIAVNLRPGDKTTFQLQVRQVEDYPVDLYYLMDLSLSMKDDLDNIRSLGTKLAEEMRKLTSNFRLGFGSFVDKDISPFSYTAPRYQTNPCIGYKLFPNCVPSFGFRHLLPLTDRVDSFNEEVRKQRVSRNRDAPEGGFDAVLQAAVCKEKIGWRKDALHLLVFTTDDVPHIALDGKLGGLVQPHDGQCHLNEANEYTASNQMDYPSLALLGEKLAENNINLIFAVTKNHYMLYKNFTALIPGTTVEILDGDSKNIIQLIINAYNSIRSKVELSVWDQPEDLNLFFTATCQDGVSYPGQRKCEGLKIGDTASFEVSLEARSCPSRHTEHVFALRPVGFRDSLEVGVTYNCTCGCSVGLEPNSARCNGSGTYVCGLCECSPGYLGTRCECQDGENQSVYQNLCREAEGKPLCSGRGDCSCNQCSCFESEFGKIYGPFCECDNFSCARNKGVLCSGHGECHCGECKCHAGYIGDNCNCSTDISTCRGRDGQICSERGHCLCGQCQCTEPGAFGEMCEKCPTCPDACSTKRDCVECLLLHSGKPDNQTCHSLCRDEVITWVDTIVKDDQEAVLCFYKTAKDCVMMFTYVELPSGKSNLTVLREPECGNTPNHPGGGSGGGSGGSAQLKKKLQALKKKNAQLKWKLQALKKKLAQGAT
- run description: BLI (Octet), antibody captured on anti-human IgG Fc (AHC) biosensor, integrin αvβ5 3.1-100 nM as analyte, divalent cations
kon overview

| binder | kon |
| --- | --- |
| in4-Ras03 (antibody, part only; not given: RT22 heavy chain, light constant, V domains shown, not shown: another chain or arm of the molecule; a dimerising Fc or GST, chain 1: disulfide bond Cys6-Cys10 closes the in4 cyclic peptide) VL: DGVRQCRGDCFDGPLMGSSSNDIQMTQSPSSLSASVGDRVTITCKSSQSLLNSRDGKNYLAWYQQKPGKAPKLLIYWASTRESGVPSRFSGSGSGTDFTLTISSLQPEDFATYFCQQYWYWMYTFGQGTKVEIK | 80600 M⁻¹ s⁻¹ |
| 5#4-Ras03 (antibody, part only; not given: RT22 heavy chain, constant regions, V domains shown, not shown: another chain or arm of the molecule; a dimerising Fc or GST; large carriers; small tags and cut ends, chain 1: disulfide bond Cys6-Cys17 closes the 5#4 cyclic peptide) VL: EHATNCTTRGDTFVVLCGLGMGSSSNDIQMTQSPSSLSASVGDRVTITCKSSQSLLNSRDGKNYLAWYQQKPGKAPKLLIYWASTRESGVPSRFSGSGSGTDFTLTISSLQPEDFATYFCQQYWYWMYTFGQGTKVEIK | 22500 M⁻¹ s⁻¹ |
| 5#1-Ras03 (antibody, part only; not given: RT22 heavy chain, constant regions, V domains shown, not shown: another chain or arm of the molecule; a dimerising Fc or GST; large carriers; small tags and cut ends, chain 1: disulfide bond Cys6-Cys15 closes the 5#1 cyclic peptide) VL: LPSGACVVRGDTFQCVSVGMGSSSNDIQMTQSPSSLSASVGDRVTITCKSSQSLLNSRDGKNYLAWYQQKPGKAPKLLIYWASTRESGVPSRFSGSGSGTDFTLTISSLQPEDFATYFCQQYWYWMYTFGQGTKVEIK | 56700 M⁻¹ s⁻¹ |
| 5#3-Ras03 (antibody, part only; not given: RT22 heavy chain, constant regions, V domains shown, not shown: another chain or arm of the molecule; a dimerising Fc or GST; large carriers; small tags and cut ends, chain 1: disulfide bond Cys6-Cys16 closes the 5#3 cyclic peptide) VL: SRDETCTPRGDTFAICMGSSSNDIQMTQSPSSLSASVGDRVTITCKSSQSLLNSRDGKNYLAWYQQKPGKAPKLLIYWASTRESGVPSRFSGSGSGTDFTLTISSLQPEDFATYFCQQYWYWMYTFGQGTKVEIK | 33300 M⁻¹ s⁻¹ |
